target: SARS-CoV-2 prefusion stabilized trimer protein (WIV02 isolate spike protein) (UniProt P0DTC2 14-1213); assay: ELISA
measurement_label: pEC50
Friendly reminder that pEC50 comes from taking -log10 of the concentration in mol/L.

# input Which pEC50 value belongs to 1-L10-A (antibody, V domains shown) VH: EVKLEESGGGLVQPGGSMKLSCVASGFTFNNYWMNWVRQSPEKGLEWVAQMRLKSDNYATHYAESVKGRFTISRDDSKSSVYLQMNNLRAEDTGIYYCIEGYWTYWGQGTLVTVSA VL: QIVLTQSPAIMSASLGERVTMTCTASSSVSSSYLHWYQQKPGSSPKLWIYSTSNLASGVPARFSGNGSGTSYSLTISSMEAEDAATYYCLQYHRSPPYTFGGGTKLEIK ?
# output 6.95

# input Now consider 10-O24-A (antibody, V domains shown) VH: QAYLQQSGAELVRPGASVKMSCKASGYTFTSYSMHWVKQTPRQGLEWIGAIYPGNDDTSYNQKFKGKATLTVDRSSSTAYMQLSSLTSEDSAVYFCTRDYSNYPFDYWGQGTTLTVSS VL: DIVLTQSPASLAVFLGQRATISCRASKSVSTSGYSYMHWYQQRPGQPPKLLIYLASNLESGVPARFSGSGSGTDFTLNIHPVEEEDAATYYCQHSRELPPTFGGGTKLEIK .
# output 8.97

# input Now consider 4-K16-A (antibody, V domains shown) VH: QIQLVQSGPELKKPGETVKISCKASGYTFTTYGMSWVKQAPGKGLKWMGWMSTYSGVPTYADDFKGRFAFSLETSASTAYLQINNLKNEDTATYFCASGDVGYWGQGTTLTVSS VL: DIVMTQSQKFMSTSVGDRVSVTCKASQNVGTNVAWYQQKPGQSPKALIYSASYRYSGVPDRFTGSGSGTDFTLTISTVQSEDLAEYFCQQYNIYPSTFGGGTKLEIK .
# output 8.98

# input Now consider 8-H3-A (antibody, V domains shown) VH: EVQLVESGGGLVQPKGSLKLSCAASGFTFNTYAMHWVRQAPGKGLEWVARIRSKSSNYATYYADSVKDRFTISRDDSQSMLYLQMNNLKTEDTAMYYCVRDHDYYGSSYWFTYWGQGTLVTVSA VL: DVVMTQTPLSLPVSLGDQASISCRSSQSLVHDNGNTYLHWFLQKPGQSPKLLIYKVSNRFSGVPDRFSGSGSGTDFTLKISRVETEDLGVYFCSQSTHVPWTFGGGTKLEIK .
# output 9.57

# input Now consider 9-J11-A (antibody, V domains shown) VH: QVQLQQSGAELVKPGASVKMSCMASGYTFTTYPIEWMKQIHGKSLEWIGNFHPYNDDSKYNEKFKGKATLSVEKSSSTVYLELSRSTSDDSAVYYCARGSYGPYWYFDVWGTGTTVTVSS VL: DIQMTQSPASLSASVGETVTITCRASGDIHNYLVWYQQKQGKSPQLLVYNAKALADGVPSRFSGSGSGTQYSLKINSLQPDDFGSYYCQHFWSIPYTFGGGTKLEIK .
# output 9.66
